The measured values listed here are drawn from the supplement of paper PMC10567573.

In this section we review reported protein stability index values for a set of variants.
B1: GLT8D2 (parent)
chain: QEAKLLHWNGRHKPWDFPSVHNDL

Variants of: B1
Assay: protein stability index of a GFP-peptide fusion (GPS, HEK-293T) (PSI 1-6); higher = more stable;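 further: lentivirally expressed fusions sorted by FACS into six bins by GFP to DsRed ratio, PSI derived from sequencing read proportions per bin multiplied by bin number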
Settings: c terminus: a fixed tail appended
Observation Type: protein stability index

Sequence Record: QEAILLHWNGRHKPWDFPSVHNDL [K4I]
Assay Value: 2.47

Sequence Record: QEAKLLHWNGRHKPWDFPSVHNDD [L24D]
Assay Value: 3.75

Sequence Record: QEAKLLHWNGRHKPWDFPSVHNKL [D23K]
Assay Value: 3.01

Sequence Record: QEAKLLHWNGRHKPWIFPSVHNDL [D16I]
Assay Value: 2.37

Sequence Record: QEAKLLHWNGRHKTWDFPSVHNDL [P14T]
Assay Value: 2.52

Sequence Record: QEAKLLHWNGRHKPCDFPSVHNDL [W15C]
Assay Value: 3.22

Sequence Record: QEAKLLHANGRHKPWDFPSVHNDL [W8A]
Assay Value: 3.39

Sequence Record: QEAKLLHWNGRHKPDDFPSVHNDL [W15D]
Assay Value: 3.59

Sequence Record: QEAKLLHWNGRHKPWDFPAVHNDL [S19A]
Assay Value: 3.21

Sequence Record: QEAKLLHWNGRGKPWDFPSVHNDL [H12G]
Assay Value: 2.59

Sequence Record: QEAKLLHWNGRHIPWDFPSVHNDL [K13I]
Assay Value: 2.35

Sequence Record: QEAKLLHWNGRHKPWDFPSVHLDL [N22L]
Assay Value: 2.53

Sequence Record: QEAKLLHWNGRTKPWDFPSVHNDL [H12T]
Assay Value: 2.79

Sequence Record: QEAKLLHWNGRHKPWDFPWVHNDL [S19W]
Assay Value: 1.61

Sequence Record: QENKLLHWNGRHKPWDFPSVHNDL [A3N]
Assay Value: 2.84

Sequence Record: QEAKVLHWNGRHKPWDFPSVHNDL [L5V]
Assay Value: 2.58

Sequence Record: QEAKLLHWNGRHPPWDFPSVHNDL [K13P]
Assay Value: 3.04

Sequence Record: QEAKLLHWNGRHKPWTFPSVHNDL [D16T]
Assay Value: 2.62

Sequence Record: QEIKLLHWNGRHKPWDFPSVHNDL [A3I]
Assay Value: 2.24

Sequence Record: QEAKLLAWNGRHKPWDFPSVHNDL [H7A]
Assay Value: 2.87
